# Tested on: MS2 coat protein
# method description: apparent KD of MS2 coat protein; designed switch direction (-1 OFF switch, 1 ON switch): -1; higher = weaker reporter binding
# particulars: input ligand: microRNA oligo, concentration not stated
measured parameter: apparent KD of MS2 coat protein (nM)
Please state the figure in nM; there is no need to write the unit.

Returns the measured apparent KD of MS2 coat protein for the input sequence. Input: UACAUGAGGAUCACCCAUGUUUUGUCGUGUUUGGUACCCGUUUAGGAUAUCGUGUUAUUGGACCGCGAGAAGGAGAGUAUCAUU [Excl-NG3-LRO06] (Eterna round: R96, puzzle: Exclusion NG 3) 18.4

Returns the measured apparent KD of MS2 coat protein for the input sequence. Input: GUGGGUCCUCACGGUGCUACAUGAGGAUCACCCAUGUGGAUUGAGGAUAUCGUAACCCUACGGGACGAGAAGGCAGUUUACUGU [Ex NG3 #100] (Eterna round: R96, puzzle: Exclusion NG 3) 14.7

Returns the measured apparent KD of MS2 coat protein for the input sequence. Input: UUUUUAUAUGAAGGAUAUACUUAACAUGAGGAUCACCCAUGUGGUGUUGUGAGUGAGUGAGUUUAGUAGAAGGUCAAUUCUUUA [JMF's solution 83] (Eterna round: R96, puzzle: Exclusion NG 2) 443

Returns the measured apparent KD of MS2 coat protein for the input sequence. Input: CGGGUGAAUAGAGGAUAUAGUACAUGAGGAUCACCCAUGUAAUAAAUGAGAAUUUCGAAUGUAAUCUAGAAGGCUAGAAAACCC [Ostracism 99 - Jieux - Exclusion NG 2] (Eterna round: R96, puzzle: Exclusion NG 2) 150

----------
# Tested on: MS2 coat protein
# method description: apparent KD of MS2 coat protein; designed switch direction (-1 OFF switch, 1 ON switch): -1; higher = weaker reporter binding
# particulars: input ligand: FMN 200 uM
Provide the reported apparent KD of MS2 coat protein of each item.
Please state the figure in nM; there is no need to write the unit.

Returns the measured apparent KD of MS2 coat protein for the input sequence. Input: CAGCUGAAUGUCAGGAUAUCUAGAGCUGCGGCUCUAGAGAAGGGACAUGAGGAUCACCCAUGUCACUCCAGCUG [BmEx4/3-B3] (Eterna round: R97, puzzle: Brourd's mod of Exclusion 4) 21.3

Returns the measured apparent KD of MS2 coat protein for the input sequence. Input: CAAGCUUUGCGAGGAUAUGAUGGCCGAUAUGCCUCAGAAGGCGCAGAAACUUGAGGAUCACCCAAGUGAUGCAACGACGACCAU [Mutated MS2 EX1.12] (Eterna round: R96, puzzle: Exclusion NG 1) 27.1

Returns the measured apparent KD of MS2 coat protein for the input sequence. Input: UUUACAAGCUUUUGAUCCCACAUGAGGAUCACCCAUGUUGCUGCCGUGAGGUAGCAUUUAACAAAUGCUCGUCUUAU [JL TOV1 3.54] (Eterna round: R97, puzzle: Sensor, turn-off variant 1) 404

Returns the measured apparent KD of MS2 coat protein for the input sequence. Input: UUCGGCGGAGGAUAUACAUAUUUUUGUUGAAUCGGCGGAAAACAUGAGGAUCACCCAUGUAGAAGGUUGUUGAA [-16.3, -13.4 kcal, A 30%] (Eterna round: R97, puzzle: Exclusion 2) 27.2

Returns the measured apparent KD of MS2 coat protein for the input sequence. Input: AAAAUGUAAGGAUAUCGUUCACUUGACAAAAGUCAAGUGAACGAGAAGGUACAUGAGGAUCACCCAUGUAUGGG [-29.9, -29 kcal, A 38%] (Eterna round: R97, puzzle: Exclusion 4) 131

----------
# System: MS2 coat protein
# method description: apparent KD of MS2 coat protein; higher = weaker reporter binding
# particulars: Eterna round: R107; input ligand: theophylline 2 mM
measured parameter: apparent KD of MS2 coat protein (nM)
Please state the figure in nM; there is no need to write the unit.

Returns the measured apparent KD of MS2 coat protein for the input sequence. Input: AAUGUAUUCCACAUGAGGAUCACCCAUGUGCGAGGACCGGUACGGCCGCCACUCGGUGUUGGGAUCUGUUCUGAAUACAUUAAUG [XTryp A #23] 40.3

Returns the measured apparent KD of MS2 coat protein for the input sequence. Input: ACGUAAUGCAGAAGGAGCGUCGAUCUCAUACAUGAGGAUCACCCAUGUUACAUGGUUGGACGACAGGUAGGUCGCUGAAGUACGA [#06 Exclusion - Arginine B] 27.4

Returns the measured apparent KD of MS2 coat protein for the input sequence. Input: AAUUCCGGGUCGGCCGCCACUGAUAUGGCGAGUCCUCGAACUUACAUGAGGAUCACCCAUGUAAACAGGACCGGGACCGCAUGGG [Exclusion Tryptophan B GF 23] 20.4

----------
Provide the reported apparent KD of MS2 coat protein of each item.
# Tested on: MS2 coat protein
# method description: apparent KD of MS2 coat protein, switch OFF state (with FMN for OFF switches, without FMN for ON switches); designed switch direction (-1 OFF switch, 1 ON switch): -1; higher = weaker reporter binding
# particulars: FMN input: 0 or 200 uM; Eterna round: R93 (includes R88 designs)
Please state the figure in nM; there is no need to write the unit.

apparent KD of MS2 coat protein of AACGAGUCAGGAUAUACAAAAAAUAAAUAAAUAAAAUAAAAGUAGAAGGGACAUGAGGAUCACCCAUGUAAAUA [JR_Exc004_Sub020] on MS2 coat protein? 44

apparent KD of MS2 coat protein of AAAAUACAUGAGGAUCACCCAUGUGAGGAUAUGCAAAACCCAUAUAAAAAGGGAAAAAGCAGAAGGUACAAAAA [wbt round 1 mod 14] on MS2 coat protein? 27.7

apparent KD of MS2 coat protein of AAAAAGGAAGGAUAUACAUGAGGAUCACCCAUGUAAAAAAAAAAAAAGGGAAAAAAAAGUAGAAGGUCCAAAAA [Montuemsaf Djedankhre] on MS2 coat protein? 40.9

apparent KD of MS2 coat protein of AAAAAGGGAGGAUAUACAUGAGGAUCACCCAUGUAGCAGACGAAAAAGAGUCUGUAAUGUAGAAGGCCCAAAAA [65%, Moding Exclusion3-cac2, 4] on MS2 coat protein? 32.2

apparent KD of MS2 coat protein of GAAAAGUGAGGAUAUGCGAAGGCGUCUGAUAGACGAGGCUAGCAGAAGGCACAUGAGGAUCACCCAUGUGGGAA [Mat - Exclusion 4 - Eli mod - D91] on MS2 coat protein? 133

apparent KD of MS2 coat protein of CUCUAGUUAGGAUAUGCAAGAAAAGAAAAGAAAGAAAAGAAGCAGAAGGAACAUGAGGAUCACCCAUGUAAGAA [EteRNA is fun!] on MS2 coat protein? 62.5

apparent KD of MS2 coat protein of UGGGAGUCAGGAUAUACGAACAUGUCGCCAGAUGUCAAGGUACAUGAGGAUCACCCAUGUAGAAGGGACGAGAA [salish99-Ex2-28] on MS2 coat protein? 34.1

apparent KD of MS2 coat protein of AAAAUGUUAGGAUAUGUGAAGGCGUCUGAUAGACGAGGCCUGCAGAAGGAACAUGAGGAUCACCCAUGUAAAAA [Mod 3 of Nando's Round 1 Power Srip] on MS2 coat protein? 25.6

apparent KD of MS2 coat protein of UUAACACAUGAGGAUCACCCAUGUUAGGAUAUUGUGGUAGGAACAACUGGGAAACGCACAAGAAGGGACACACA [EX1 Malc#18 Mod 18 - Jieux - Exclusion 1] on MS2 coat protein? 26.6

apparent KD of MS2 coat protein of AAAAAACAUGAGGAUCACCCAUGUUAGGAUAUGCAGAGGGAAAAAAAAAAAAAAAAAAGCAGAAGGAACAUAAA [Design1] on MS2 coat protein? 26.5

apparent KD of MS2 coat protein of AACAGUACAGGAUAUACAUGAGGAUCACCCAUGUGAGAAUUAAGUAGAUUGCCACAAAGUAGAAGGGUACUGGA [Ruby 98] on MS2 coat protein? 80.9

apparent KD of MS2 coat protein of AGAUAGUCAGGAUAUACGAACAAGAAAAAAGACGAGAACGGACAUGAGGAUCACCCAUGUAGAAGGGACUAGAA [Diamond 11] on MS2 coat protein? 28.6

apparent KD of MS2 coat protein of AAGAACGUAGGAUAUACAAAAUAAAAGAAAAGAAAGAAAGAACAUGAGGAUCACCCAUGUAGAAGGACGAAGAA [Sekhemrekhutawy Khabaw] on MS2 coat protein? 21.8

----------
# Tested on: MS2 coat protein
# method description: apparent KD of MS2 coat protein; designed switch direction (-1 OFF switch, 1 ON switch): -1; higher = weaker reporter binding
# particulars: input ligand: FMN 200 uM
measured parameter: apparent KD of MS2 coat protein
Report as: number unit

Returns the measured apparent KD of MS2 coat protein for the input sequence. Input: CCAAGAAUAGGAUAUACACCAUGUCAGCUUCUAUACAUCGCACAUGAGGAUCACCCAUGUAGAAGGGUUCUCUC [Exclusion-2-#4] (Eterna round: R97, puzzle: Exclusion 2) 369 nM

Returns the measured apparent KD of MS2 coat protein for the input sequence. Input: UGUUGUUACGUAGGAUAUGAGGAUCACCCAUAGAAGGAUAUCGAAAGAGAAGGUCUGAGGAUUACCCAGAAGGACGGGUUAACA [pwkr exNG2 2xF5 2xFMN.4] (Eterna round: R96, puzzle: Exclusion NG 2) 1340 nM

Returns the measured apparent KD of MS2 coat protein for the input sequence. Input: AACAGUCUGGAGGAUAUGCUGGAUUAAUAUCUGGCAGAAGGCUGGACAUGAGGAUCACCCAUGUAAAUACUACC [Omei Ex6 A2] (Eterna round: R97, puzzle: Exclusion 6) 55.2 nM
